# Species on record: Homo sapiens
# PROTOCOL: In vitro inhibition of platelet aggregation induced by ADP-II (PRP incubated for 5 minutes at 37 degree C) at 10e-5 M
# Assay type: functional
Kindly state inhibition at 10 µM for each of the entries shown.
One number for each entry, in %.

Here are 3 compounds together with their reported answers.
| SMILES | inhibition at 10 µM (%) |
| --- | --- |
| COc1ccc2[nH]c3c(NN)nncc3c2c1.Cl | 100 |
| CCOc1ccc2[nH]c3c(NN)nncc3c2c1.Cl | 100 |
| Oc1ccc2[nH]c3c(O)nncc3c2c1 | 87 |

For every record below, what is its inhibition at 10 µM?
1. COc1ccc2c(c1)cc1c(NN)nncn12
2. Oc1[nH]ncc2c3cc(OCc4ccccc4)ccc3nc1-2

[100, 60]
